Molecular target: Bromodomain-containing protein 2 (Homo sapiens)
Sequence (P25440 whole entry): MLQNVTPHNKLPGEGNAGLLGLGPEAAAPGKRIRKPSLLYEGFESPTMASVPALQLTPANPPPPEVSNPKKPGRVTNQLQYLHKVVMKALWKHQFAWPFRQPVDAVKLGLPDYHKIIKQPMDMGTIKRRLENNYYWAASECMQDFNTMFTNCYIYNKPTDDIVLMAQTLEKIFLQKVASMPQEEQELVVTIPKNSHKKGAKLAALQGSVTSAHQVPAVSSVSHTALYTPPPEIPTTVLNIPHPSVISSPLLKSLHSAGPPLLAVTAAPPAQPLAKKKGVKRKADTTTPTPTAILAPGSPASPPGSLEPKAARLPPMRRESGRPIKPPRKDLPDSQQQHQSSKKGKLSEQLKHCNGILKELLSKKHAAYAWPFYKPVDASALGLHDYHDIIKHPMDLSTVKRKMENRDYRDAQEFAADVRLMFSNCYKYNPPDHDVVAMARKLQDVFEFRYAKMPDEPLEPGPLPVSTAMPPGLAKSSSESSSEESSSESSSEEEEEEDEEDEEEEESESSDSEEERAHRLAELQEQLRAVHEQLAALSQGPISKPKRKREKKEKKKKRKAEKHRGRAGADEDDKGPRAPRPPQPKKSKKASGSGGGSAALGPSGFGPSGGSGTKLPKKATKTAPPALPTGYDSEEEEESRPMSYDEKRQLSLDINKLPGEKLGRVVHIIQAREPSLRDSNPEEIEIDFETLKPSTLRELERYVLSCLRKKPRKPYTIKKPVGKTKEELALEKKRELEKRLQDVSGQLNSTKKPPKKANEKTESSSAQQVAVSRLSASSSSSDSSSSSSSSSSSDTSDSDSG
Experiment: Inhibition of His6-tagged BRD2 expressed in Escherichia coli assessed as inhibition of binding to SGRG-K(Ac)-GG-K(Ac)-GLG-K(Ac)-GGA-K(Ac)-RHGSGSK-biotin after 1 hr by TR-FRET assay
PROPERTY MEASURED: IC50 (µM)
Unit µM implied. Number only.

[[record]]
compound = "Cc1ccc(-c2c(C)noc2C)cc1S(N)(=O)=O"
observed = 8.1

[[record]]
compound = "Cc1ccc(-c2c(C)noc2C)cc1S(=O)(=O)Nc1ccccc1Cl"
observed = 1.8

[[record]]
compound = "Cc1ccc(-c2c(C)noc2C)cc1S(=O)(=O)NCCCc1ccccc1"
observed = 3.9

[[record]]
compound = "Cc1noc(C)c1-c1ccc(O)c(S(=O)(=O)NC2CCCC2)c1"
observed = 1.5

[[record]]
compound = "Cc1noc(C)c1-c1cccc(S(=O)(=O)NC2CC2)c1"
observed = 3.6

[[record]]
compound = "Cc1ccc(-c2c(C)noc2C)cc1S(=O)(=O)NCc1ccccc1"
observed = 4.7

[[record]]
compound = "COc1ccc(NS(=O)(=O)c2cc(-c3c(C)noc3C)ccc2C)cc1"
observed = 6

[[record]]
compound = "COc1ccc(-c2c(C)noc2C)cc1S(=O)(=O)NCc1ccccc1"
observed = 13


Challenge: Quote IC50 reported for `COc1ccc(-c2c(C)noc2C)cc1S(=O)(=O)N(C)C1CCCC1` please.
Response given: 0.8

Challenge: Quote IC50 reported for `COc1cccc(NS(=O)(=O)c2cc(-c3c(C)noc3C)ccc2C)c1` please.
Response given: 2

Challenge: Quote IC50 reported for `COc1ccc(-c2c(C)noc2C)cc1S(=O)(=O)Nc1ccccc1Cl` please.
Response given: 4.3

Challenge: Quote IC50 reported for `CCNS(=O)(=O)c1cc(-c2c(C)noc2C)ccc1C` please.
Response given: 2.2

Challenge: Quote IC50 reported for `COc1ccc(-c2c(C)noc2C)cc1S(=O)(=O)Nc1ccccc1` please.
Response given: 2.4

Challenge: Quote IC50 reported for `Cc1ccc(-c2c(C)noc2C)cc1S(=O)(=O)N1CCOCC1` please.
Response given: 4.2

Challenge: Quote IC50 reported for `Cc1ccc(-c2c(C)noc2C)cc1S(=O)(=O)Nc1ccccc1` please.
Response given: 1.1

Challenge: Quote IC50 reported for `COc1ccc(-c2c(C)noc2C)cc1S(=O)(=O)N1CCNCC1` please.
Response given: 16

Challenge: Quote IC50 reported for `Cc1ccc(-c2c(C)noc2C)cc1S(=O)(=O)N1CCNCC1` please.
Response given: 14

Challenge: Quote IC50 reported for `COc1ccc(NS(=O)(=O)c2cc(-c3c(C)noc3C)ccc2OC)cc1` please.
Response given: 14

Challenge: Quote IC50 reported for `Cc1noc(C)c1-c1ccc(OCCCN2CCOCC2)c(S(=O)(=O)NC2CCCC2)c1` please.
Response given: 1.5

Challenge: Quote IC50 reported for `COc1ccc(-c2c(C)noc2C)cc1S(=O)(=O)NC1CCNCC1` please.
Response given: 31

Challenge: Quote IC50 reported for `Cc1ccc(-c2c(C)noc2C)cc1S(=O)(=O)N1CCCCC1` please.
Response given: 1.1

Challenge: Quote IC50 reported for `Cc1ccc(-c2c(C)noc2C)cc1S(=O)(=O)Nc1ccc(Cl)cc1` please.
Response given: 3.6

Challenge: Quote IC50 reported for `COCCNS(=O)(=O)c1cc(-c2c(C)noc2C)ccc1C` please.
Response given: 12

Challenge: Quote IC50 reported for `Cc1ccc(-c2c(C)noc2C)cc1S(=O)(=O)NCCc1ccccc1` please.
Response given: 4.4

Challenge: Quote IC50 reported for `COc1ccccc1NS(=O)(=O)c1cc(-c2c(C)noc2C)ccc1C` please.
Response given: 1.5

Challenge: Quote IC50 reported for `COc1ccccc1NS(=O)(=O)c1cc(-c2c(C)noc2C)ccc1OC` please.
Response given: 4.9

Hey, just so you know, these numbers are from ChEMBL document CHEMBL2176978.
